- assayed target: human 5α-reductase isozyme type 1 (Homo sapiens)
- Construct: expressed in transfected cells; host or cells: Rat-1A cells infected with pMV7 retrovirus; microsomes of these cells
- Sequence (P18405 1-259): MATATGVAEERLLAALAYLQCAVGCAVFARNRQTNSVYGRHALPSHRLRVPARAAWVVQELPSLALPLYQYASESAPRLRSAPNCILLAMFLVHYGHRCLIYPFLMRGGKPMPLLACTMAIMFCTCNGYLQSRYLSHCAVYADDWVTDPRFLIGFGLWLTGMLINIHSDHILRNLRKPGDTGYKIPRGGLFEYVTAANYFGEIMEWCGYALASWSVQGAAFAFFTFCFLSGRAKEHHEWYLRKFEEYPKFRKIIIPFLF
- test protocol: [3H]4-MA binding, human type 1 isozyme expressed in Rat-1A cells
- condition set: read-out: % Inhibition of [^3 H]4-MA binding
reported endpoint: inhibition at 1 µM (%)
One number for each entry, in %.

For every item in the list below, what is its measured inhibition at 1 µM?
1. O=C(O[C@@H]1Cc2c(O)cc(O)cc2O[C@@H]1c1ccc(O)c(O)c1)c1cc(O)c(O)c(O)c1 [ECG, (-)Epicatechin-3-gallate]
2. CCCCC/C=C\C/C=C\C/C=C\CCCCC(=O)O
3. O=C(O[C@@H]1Cc2c(O)cc(O)cc2O[C@@H]1c1cc(O)c(O)c(O)c1)c1cc(O)c(O)c(O)c1 [EGCG, (-)Epigallocatechin-3-gallate]

result:
34
20
29
